target: E3 ubiquitin-protein ligase XIAP (Homo sapiens) (UniProt P98170); experiment: small molecules displacing peptide from XIAP – biochemical, IAP family, fluorescence polarization (AID 1018); settings: XIAP BIR domain, at 20 µM, stronger effect = higher value
Sequence (P98170 whole entry, looked up, the tested form may be a part): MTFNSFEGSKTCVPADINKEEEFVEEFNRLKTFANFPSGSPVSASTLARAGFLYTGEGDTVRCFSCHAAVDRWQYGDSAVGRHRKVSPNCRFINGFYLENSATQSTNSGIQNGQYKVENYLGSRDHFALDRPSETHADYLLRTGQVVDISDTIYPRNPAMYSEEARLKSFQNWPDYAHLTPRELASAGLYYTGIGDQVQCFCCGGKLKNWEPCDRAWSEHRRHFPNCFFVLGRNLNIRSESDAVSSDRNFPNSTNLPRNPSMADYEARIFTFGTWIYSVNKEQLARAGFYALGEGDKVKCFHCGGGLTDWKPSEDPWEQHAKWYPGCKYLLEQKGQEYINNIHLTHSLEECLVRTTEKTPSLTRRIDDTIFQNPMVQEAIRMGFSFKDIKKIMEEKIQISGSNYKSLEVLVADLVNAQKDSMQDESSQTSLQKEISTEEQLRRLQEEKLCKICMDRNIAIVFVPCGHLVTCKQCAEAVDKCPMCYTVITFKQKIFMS
Screen size: about 200,000 compounds; about 15 (0.007%) were called active. The list comes from a sample in which actives are over-represented; it also holds close analogues and randomly drawn compounds.

compound: Cc1cccc(-c2n[nH]c(=S)n2-c2ccccc2)c1[N+](=O)[O-]
valueUnits: %
displacement: -3.7

compound: CCCCCC(=O)N1CCN(CCN=CC2=C(O)CC(c3ccc(OC)c(OC)c3)CC2=O)CC1 (stereo not given)
valueUnits: %
displacement: -3.4

compound: COC(=O)c1cc2c(-c3ccccc3)c(C)c3ccccn3c-2c1C(=O)OC
valueUnits: %
displacement: 26

compound: CC(/C=C1\SC(=S)N(NC(=O)c2ccccc2C)C1=O)=C\c1ccccc1
valueUnits: %
displacement: -1.8

compound: CCOC(=O)C1=C(C)NC(=NC)SC1c1ccccc1 (stereo not given)
valueUnits: %
displacement: -5

compound: CC(C)(C)n1nnnc1C(c1ccncc1)N(Cc1ccccc1)Cc1ccco1 (stereo not given)
valueUnits: %
displacement: -4.2

compound: CCOc1cccc2cc(C(=O)N3CCc4ccccc43)c(=O)oc12
valueUnits: %
displacement: -88.7

compound: O=c1[nH]c2cc3c(cc2cc1CN(Cc1cccnc1)C(=S)NCc1ccco1)OCO3
valueUnits: %
displacement: -8.9

compound: COC(=O)c1c(Cl)c2n3ccccc3c(C)c(-c3ccccc3)c-2c1C(=O)OC
valueUnits: %
displacement: -0.6

compound: CN(C)CCCOC(=O)COc1ccc(C(C)(C)C)cc1
valueUnits: %
displacement: -1.4

* * *

target: E3 ubiquitin-protein ligase XIAP (Homo sapiens); test: small molecules displacing peptide from XIAP – biochemical, IAP family, fluorescence polarization (AID 1018); settings: XIAP BIR domain, at 20 µM, stronger effect = higher value
The whole screen tested about 200,000 compounds, of which about 15 (0.007%) were called active. Only a selection was taken, and actives are over-represented in it overall.

compound: O=C(O)CCc1nc(-c2ccc(Cl)cc2)no1
displacement / %: -3.7
--
compound: Nc1nc(-c2ccco2)nn1S(=O)(=O)c1ccc(Cl)cc1
displacement / %: -2.1
--
compound: CCNS(=O)(=O)c1ccc(Br)c(OC)c1
displacement / %: -3.2
--
compound: Fc1cccc(Cn2cc(C(=S)N3CCOCC3)c3ccccc32)c1
displacement / %: -4.3
--
compound: Cc1sc2ncn(-c3ccccc3)c(=O)c2c1C
displacement / %: 4.2
--
compound: CCOC(=O)c1ccc(NC(=S)NCCCN2CCCCC2)cc1
displacement / %: -4.4
--
compound: C#CCOCCOCCOCCNc1nc(N2CCN(C(=O)[C@H](CCCCN)n3cc([C@@H](N)C(C)CC)nn3)CC2)nc(N2CCN(C(=O)[C@H](CCCCN)n3cc([C@@H](N)CO)nn3)CC2)n1 (some centres not stated)
displacement / %: 3.3
--
compound: COc1ccc(N(CC(=O)NCCSC2CCCCC2)S(C)(=O)=O)c(OC)c1
displacement / %: -4.6
--
compound: Cc1ccc(S(=O)(=O)N2CCOCC2)cc1NC(=O)COC(=O)c1ccccc1OCc1c(C)noc1C
displacement / %: 0.2
--
compound: C=CC(=O)NCCCc1cc(C(C)(C)C)c(O)c(C(C)(C)C)c1
displacement / %: -6.9
--
compound: COC(=O)C(NNc1ccccc1C)(NC(=O)c1ccc(F)cc1)C(F)(F)F (configuration not stated)
displacement / %: -3.9
--
compound: CC(C)(C)C1=C(C#N)C(c2ccncc2)C(C#N)=C(N)O1 (configuration not stated)
displacement / %: -0.4
--
compound: O=C(O)CCCc1nc(-c2ccc(Cl)cc2)no1
displacement / %: 70.8
--
compound: CCOC(=O)c1c(C)[nH]c(C)c1C(=O)CSc1nnc(-c2ccncc2)n1C
displacement / %: -0.3
--
compound: C=C(C)C1Cc2c(C)nn(-c3cccc4ccccc34)c2C1 (configuration not stated)
displacement / %: -4.8
--
compound: CC(=O)NC1C(=O)N(CCc2ccccc2)c2ccccc21 (configuration not stated)
displacement / %: 1.5
--
compound: CCCCCCCCNC(=O)c1cnsn1
displacement / %: -0.1
--
compound: COC(=O)c1cn(NC(=O)c2ccc3c(c2)OCO3)c(=O)c2ccccc12
displacement / %: -3.5
--
compound: O=C(NC1CCCC1)C(c1ccncc1)N(Cc1ccco1)C(=O)c1ccc(-c2ccccc2)[nH]1 (configuration not stated)
displacement / %: -0.5
--
compound: COc1cc(C)c(Cl)c(C)c1S(=O)(=O)NC1CC(C)(C)NC(C)(C)C1
displacement / %: -4.7
--
compound: CCc1ccc(C(=O)COC(=O)CNC(=O)c2ccc(N3C(=O)c4ccccc4C3=O)cc2)cc1
displacement / %: -2.7
--
compound: Cc1cc(NC(=O)COn2nnc3ccc(Cl)cc32)no1
displacement / %: -5.1

* * *

target: E3 ubiquitin-protein ligase XIAP (Homo sapiens); test: small molecules displacing peptide from XIAP – biochemical, IAP family, fluorescence polarization (AID 1018); settings: XIAP BIR domain, at 20 µM
The campaign covered roughly 200,000 compounds. About 15 (0.007%) were called active. No stated cut-off is given here; in the data, active means displacement above about 50%; inactive means the rest. What follows is part of a selection rich in actives, with near analogues and random picks from the rest.
Outcomes: yes for active, no for inactive

molecule: O=C(CCCOc1ccccc1)Nc1ccc(S(=O)(=O)N2CCOCC2)cc1
category: no
//
molecule: Cc1ccc(-n2c(-c3ccccc3)c[n+]3c2CCc2ccccc2-3)c(C)c1
category: no
//
molecule: CC1=C(C(=O)Nc2ccccc2)C(c2ccccc2[N+](=O)[O-])NC(=O)N1 (stereo unspecified)
category: no
//
molecule: Cc1ccc(N2N=C(c3ccc(Br)cc3)CCC2=O)cc1
category: no
//
molecule: COc1ccc(NC(=O)OCCN2CCN(Cc3ccccc3)CCC2=O)cc1
category: no
//
molecule: CCc1c(C)nc2c(Br)cccc2c1SCCC#N
category: no
//
molecule: CCN1CCCC1CNC(=O)Cn1cccc1C(=O)c1ccccc1 (stereo unspecified)
category: no
//
molecule: CC(=O)COc1cc(C)cc2oc(=O)c(C)c(C)c12
category: yes
//
molecule: Cc1cc(OCC(=O)C(C)(C)C)c2c(C)c(C)c(=O)oc2c1
category: no
//
molecule: Cc1cc(C(F)(F)F)nn1CC(=O)N(C)c1ccccc1
category: no
//
molecule: CCOC(=O)c1ccc(NC(=O)N2CCN(CCc3ccccc3)CC2)cc1
category: no

* * *

target: E3 ubiquitin-protein ligase XIAP (Homo sapiens) (UniProt P98170); assay: small molecules displacing peptide from XIAP – biochemical, IAP family, fluorescence polarization (AID 1018); settings: XIAP BIR domain, at 20 µM
The campaign covered roughly 200,000 compounds. About 15 (0.007%) were called active. Cut-off read from the data, not from the text of the source: active = displacement above about 50%; inactive = the rest. This excerpt belongs to a sample that is enriched for actives.
Outcomes: active, inactive

substanceSmiles: Cc1ccc(Cn2nnc3c(=O)[nH]c(C4CCN(S(=O)(=O)c5ccc(F)cc5)CC4)nc32)cc1
tgt: E3 ubiquitin-protein ligase XIAP (Homo sapiens) (UniProt P98170)
category: active

substanceSmiles: COc1cccc(C(=O)COc2cccc(NC(=O)c3cccc([N+](=O)[O-])c3)c2)c1
tgt: E3 ubiquitin-protein ligase XIAP (Homo sapiens) (UniProt P98170)
category: inactive

substanceSmiles: COc1ccc(-c2nc(CC(=O)O)cs2)cc1OC
tgt: E3 ubiquitin-protein ligase XIAP (Homo sapiens) (UniProt P98170)
category: inactive

substanceSmiles: Cc1ccc(Cn2nnc3c(=O)[nH]c(C4CCN(S(=O)(=O)c5ccc(C)cc5)CC4)nc32)cc1
tgt: E3 ubiquitin-protein ligase XIAP (Homo sapiens) (UniProt P98170)
category: inactive

substanceSmiles: O=C(COc1cccc(NC(=O)c2cccc([N+](=O)[O-])c2)c1)c1ccc(F)cc1
tgt: E3 ubiquitin-protein ligase XIAP (Homo sapiens) (UniProt P98170)
category: active

* * *

target: E3 ubiquitin-protein ligase XIAP (Homo sapiens) (UniProt P98170); assay: small molecules displacing peptide from XIAP – biochemical, IAP family, fluorescence polarization (AID 1018); conditions: XIAP BIR domain, at 20 µM
About 15 (0.007%) of roughly 200,000 compounds were called active. Rule as the data show it: active = displacement above about 50%; inactive = the rest. Shown is part of a subset that was picked to be rich in actives.
Outcomes: y (active), n (inactive)

substanceSmiles: CCN1/C(=C/c2ccc3cc(C)ccc3[n+]2CC)Sc2cc(C)ccc21
category: n
//
substanceSmiles: CCN1/C(=C/c2ccc3cc(C)ccc3[n+]2C)Sc2ccc3sccc3c21
category: y
//
substanceSmiles: CCCc1cc(-c2n[nH]c(=S)n2CC)cs1
category: n
//
substanceSmiles: N#Cc1nc(COc2ccccc2)oc1N1CCN(Cc2ccccc2)CC1
category: n
//
substanceSmiles: CC(=O)C(C(C)=O)C1(O)C(=O)c2ccccc2C1=O
category: n
//
substanceSmiles: Cc1ccc(N/C(N)=N/c2nc(CSc3ccc(C)cc3)cc(=O)[nH]2)cc1
category: n
//
substanceSmiles: CCOc1ccccc1NC(=O)c1nc[nH]c1C(=O)Nc1ccccc1OCC
category: n
//
substanceSmiles: CCN1/C(=C/c2ccc3cc(C)ccc3[n+]2CC)Sc2ccccc21
category: n
//
substanceSmiles: CC(=O)Nc1cc(C)c(S(C)(=O)=O)c(C)c1
category: n
//
substanceSmiles: O=C(Nc1ccccc1C(F)(F)F)NC1CCCCC1
category: n
//
substanceSmiles: O=C(Cn1c(=O)oc2cc(S(=O)(=O)N3CCCCC3)ccc21)N1CCc2ccccc2C1
category: n
